tested on: NFKB; test: siRNA transfection array, NFkB EGFP reporter, HepG2 cells; type: cell-based, human; conditions: NFKB reporter, 48 h culture
parameter: Relative intensity ratio of EGFP fluorescence against Scramble II Duplex, NFKB (%)

INSERT INTO assay_data (substance, subjectoftest, u, measurednumber) VALUES
  ('HSF-2 siRNA: siRNA SEQ ID NO: 60 (Dharmacon), targets human HSF2 M65217 (GUUCCACACAGUAGGACUG; chemistry not given here)', 'NFKB', '%', 77.2),
  ('IkBa siRNA: siRNA SEQ ID NO: 62 (Dharmacon), targets human MAD-3 (IkB-like) M69043 (GCAGACUCCACUCCACUUG; chemistry not given here)', 'NFKB', '%', 64.5),
  ('p53 siRNA: siRNA SEQ ID NO: 76 (Dharmacon), targets human p53 AF307851 (GACUCCAGUGGUAAUCUAC; chemistry not given here)', 'NFKB', '%', 86.1);

Values were extracted from patent US20070174009A1.
